Test system: SK-BR-3
Assay: SRB colorimetric assay of cell growth and viability, SK-BR-3
Format: cell-based, human
Conditions: 48 hours exposure
Where a SMILES comes first, the peptide text is derived from it. Bridges are numbered along the chain shown (N, C = ends). [ ]: non-standard residue; d: D form. The star is where a group is joined. d(aIle) = CC[C@H](C)[C@@H](N)C(=O)O; d(aThr) = C[C@@H](O)[C@@H](N)C(=O)O; Hexanoyl(5-Me) = CC(C)CCCC(=O)*; Orn = NCCC[C@H](N)C(=O)O; Dhb = C/C=C(\N)C(=O)O
measured_attribute: GI50 (nM)
Express the result in nM but write the number alone.

Report GI50 for C/C=C1\NC(=O)[C@H](Cc2ccccc2)NC(=O)[C@@H](C(C)C)NC(=O)[C@@H]([C@@H](C)CC)NC(=O)[C@H](NC(=O)[C@H](NC(=O)[C@H](CCCN)NC(=O)[C@H]2CCCN2C(=O)[C@H](NC(=O)[C@@H](NC(=O)[C@@H](NC(=O)[C@H](NC(=O)CCCC(C)C)C(C)C)[C@@H](C)O)[C@@H](C)O)C(C)C)[C@@H](C)CC)[C@@H](C)OC(=O)[C@H](C(C)C)NC1=O [Compound 50, [Thr^11]-KF] ({Hexanoyl(5-Me)}-[dV]TT[dV][dP][Orn][d(aIle)][d(aThr)][d(aIle)][dV]F[Dhb]V; ester 8-C) please.
899
